The following compounds are shown together with reported IC50 values.
MEASUREMENT_TARGET: UniProt:P14324
Sequence (P14324 whole entry): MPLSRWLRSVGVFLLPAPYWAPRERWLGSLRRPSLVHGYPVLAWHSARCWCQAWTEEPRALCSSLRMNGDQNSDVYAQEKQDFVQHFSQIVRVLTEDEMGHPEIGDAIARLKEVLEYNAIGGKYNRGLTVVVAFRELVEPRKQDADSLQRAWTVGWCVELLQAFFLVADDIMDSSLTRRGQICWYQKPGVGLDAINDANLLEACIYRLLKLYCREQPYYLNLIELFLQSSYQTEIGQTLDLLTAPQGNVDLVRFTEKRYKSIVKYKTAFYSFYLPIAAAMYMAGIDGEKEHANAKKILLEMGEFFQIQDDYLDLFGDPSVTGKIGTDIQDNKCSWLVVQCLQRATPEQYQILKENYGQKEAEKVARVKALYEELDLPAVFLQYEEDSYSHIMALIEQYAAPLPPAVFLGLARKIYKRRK
PROTOCOL_NOTES: Inhibition of human FPPS
MEASUREMENT_CONTEXT: read-out: IC50

COMPOUND | IC50 (µM)
CCC[S+](C)CC(P(=O)([O-])O)P(=O)(O)O (centres undefined) | 0.53
CCCCCCCCCCCCCCCC[S+](C)CC(P(=O)([O-])O)P(=O)(O)O (centres undefined) | 45.6
CCCCCCCCCCCCCC[S+](C)CC(P(=O)([O-])O)P(=O)(O)O (centres undefined) | 8.47
CCCCC[S+](C)CC(P(=O)([O-])O)P(=O)(O)O (centres undefined) | 1.08
CCCCCCCCCCCCCCCCCC[S+](C)CC(P(=O)([O-])O)P(=O)(O)O (centres undefined) | 7.45
CCCCCCCCCC[S+](C)CC(P(=O)([O-])O)P(=O)(O)O (centres undefined) | 0.24
C[S+](C)CCC(O)(P(=O)([O-])O)P(=O)(O)O (centres undefined) | 9
C[S+](C)CC(O)(P(=O)([O-])O)P(=O)(O)O (centres undefined) | 1.03
CCCCCCCCCCCCCCCCCCCC[S+](C)CC(P(=O)([O-])O)P(=O)(O)O (centres undefined) | 27.4

###

Tested on: NCI-H460
PROTOCOL_NOTES: Growth inhibition of human NCI-H460 cells after 4 days by MTT assay
Type: functional, cell-based
MEASUREMENT_CONTEXT: NCI-H460, 96 h, read-out: IC50
pIC50: −log10 of the molar value.
The following molecules are shown together with reported pIC50 values.
MEASURED_PARAMETER: pIC50

MOLECULE | MEASURED_PARAMETER | READOUT_VALUE
C[S+](CCCCCc1ccccc1)CC(P(=O)([O-])O)P(=O)(O)O (centres undefined) | pIC50 | 4.63
C[S+](CCCc1ccccc1)CC(O)(P(=O)([O-])O)P(=O)(O)O (centres undefined) | pIC50 | 4.86
C[S+](CCCc1ccccc1)CC(P(=O)([O-])O)P(=O)(O)O (centres undefined) | pIC50 | 4.26
O=P([O-])(O)C(C[S+]1CCCC1)P(=O)(O)O (centres undefined) | pIC50 | 4.08
CCCCC[S+](C)CC(P(=O)([O-])O)P(=O)(O)O (centres undefined) | pIC50 | 3.89
C[S+](C)CC(O)(P(=O)([O-])O)P(=O)(O)O (centres undefined) | pIC50 | 3.72
CCCCCCCCCCCCCCCCCCCC[S+](C)CC(P(=O)([O-])O)P(=O)(O)O (centres undefined) | pIC50 | 5.94
CCCCCCCCCCCC[S+](C)CC(P(=O)([O-])O)P(=O)(O)O (centres undefined) | pIC50 | 6.68
CCCCCCCCCC[S+](C)CC(P(=O)([O-])O)P(=O)(O)O (centres undefined) | pIC50 | 6.49

###

Tested on: NCI-H460
PROTOCOL_NOTES: Growth inhibition of human NCI-H460 cells after 4 days by MTT assay
Type: functional, cell-based
MEASUREMENT_CONTEXT: NCI-H460, 96 h, read-out: IC50
The following compounds are shown together with reported IC50 values.

COMPOUND | ENDPOINT_UNIT | IC50
O=P([O-])(O)C(O)(C[S+]1CCCC1)P(=O)(O)O (stereo unspecified) | µM | 126
C[S+](CCCc1ccccc1)CCC(O)(P(=O)([O-])O)P(=O)(O)O (stereo unspecified) | µM | 66.1
O=P([O-])(O)C(O)(CC[S+]1CCCC1)P(=O)(O)O (stereo unspecified) | µM | 158
CCCCC[S+](C)CCC(O)(P(=O)([O-])O)P(=O)(O)O (stereo unspecified) | µM | 200
CCC[S+](C)CC(P(=O)([O-])O)P(=O)(O)O (stereo unspecified) | µM | 95.5
CCCCCCCC[S+](C)CCC(O)(P(=O)([O-])O)P(=O)(O)O (stereo unspecified) | µM | 25.7
CCCCCCCCCCCCCC[S+](C)CC(P(=O)([O-])O)P(=O)(O)O (stereo unspecified) | µM | 0.48
CCCCCCCCCCC[S+](C)CC(P(=O)([O-])O)P(=O)(O)O (stereo unspecified) | µM | 3.7
C[S+](C)CCC(O)(P(=O)([O-])O)P(=O)(O)O (stereo unspecified) | µM | 95.1
O=P([O-])(O)C(O)(CC[S+]1CCCCC1)P(=O)(O)O (stereo unspecified) | µM | 355
CCCCCCCCCCCCCCCC[S+](C)CC(P(=O)([O-])O)P(=O)(O)O (stereo unspecified) | µM | 1.41

###

Tested on: NCI-H460
PROTOCOL_NOTES: Growth inhibition of human NCI-H460 cells after 4 days by MTT assay
Assay type: functional, cell-based
MEASUREMENT_CONTEXT: NCI-H460, 96 h, read-out: IC50
pIC50: −log10 of the molar value.
Criterion: pIC50 meeting or surpassing 4. Met: MET. Not met: NOT MET.

COMPOUND | MEASUREMENT_TARGET | CATEGORY_LABEL
CCC[S+](C)CCC(O)(P(=O)([O-])O)P(=O)(O)O (stereo unspecified) | NCI-H460 | NOT MET
C[S+](CCCCc1ccccc1)CC(P(=O)([O-])O)P(=O)(O)O (stereo unspecified) | NCI-H460 | MET
C[S+](CCCOc1ccccc1)CC(O)(P(=O)([O-])O)P(=O)(O)O (stereo unspecified) | NCI-H460 | MET
CCCCCCCCCCCCCCCCCC[S+](C)CC(P(=O)([O-])O)P(=O)(O)O (stereo unspecified) | NCI-H460 | MET
O=P([O-])(O)C(O)(C[S+]1CCCCC1)P(=O)(O)O (stereo unspecified) | NCI-H460 | NOT MET
C[S+](CCCOc1ccccc1)CCC(O)(P(=O)([O-])O)P(=O)(O)O (stereo unspecified) | NCI-H460 | NOT MET
O=P([O-])(O)C(O)(CC[S+]1CCC(c2ccccc2)C1)P(=O)(O)O (stereo unspecified) | NCI-H460 | NOT MET
C[S+](CCc1ccccc1)CCC(O)(P(=O)([O-])O)P(=O)(O)O (stereo unspecified) | NCI-H460 | NOT MET
CCCCCCCC[S+](C)CC(P(=O)([O-])O)P(=O)(O)O (stereo unspecified) | NCI-H460 | MET
CCCCCCCCCCCCC[S+](C)CC(P(=O)([O-])O)P(=O)(O)O (stereo unspecified) | NCI-H460 | MET
CCC[S+](C)CC(O)(P(=O)([O-])O)P(=O)(O)O (stereo unspecified) | NCI-H460 | MET
